These measurements were taken from ChEMBL document CHEMBL1157719.

Biological target: Fatty-acid amide hydrolase 1 (Rattus norvegicus)
Sequence (P97612 whole entry): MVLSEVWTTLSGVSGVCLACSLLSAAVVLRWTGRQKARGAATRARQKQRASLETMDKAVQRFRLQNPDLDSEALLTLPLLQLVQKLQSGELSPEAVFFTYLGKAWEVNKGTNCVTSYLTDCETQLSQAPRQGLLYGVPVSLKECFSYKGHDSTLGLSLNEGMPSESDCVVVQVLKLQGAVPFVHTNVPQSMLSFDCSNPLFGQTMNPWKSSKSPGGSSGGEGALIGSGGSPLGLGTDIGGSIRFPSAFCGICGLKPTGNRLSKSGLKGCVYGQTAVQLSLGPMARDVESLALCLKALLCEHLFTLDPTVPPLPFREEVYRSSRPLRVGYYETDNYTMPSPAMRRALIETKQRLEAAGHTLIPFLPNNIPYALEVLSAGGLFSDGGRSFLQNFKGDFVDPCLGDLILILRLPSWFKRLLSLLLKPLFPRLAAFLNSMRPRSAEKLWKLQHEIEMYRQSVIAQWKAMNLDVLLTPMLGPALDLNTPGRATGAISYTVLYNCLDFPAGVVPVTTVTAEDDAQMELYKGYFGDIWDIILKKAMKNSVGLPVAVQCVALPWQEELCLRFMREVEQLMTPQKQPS
propertyMeasured: IC50

CCCCCCCCc1ccc(OCC(=O)Cn2ccc3cc(C(N)=O)ccc32)cc1 | 6.4 µM

# input Please give the measured IC50 for this compound: CCCCCCCCc1ccc(OCC(=O)Cn2ncc3ccccc32)cc1
# output 5 µM

# input Name the recorded IC50 for CCCCCCCCc1ccc(OCC(=O)Cn2ccc3cc(C=O)ccc32)cc1 .
# output > 10 µM

# input What value of IC50 has been reported for the following compound? CCCCC/C=C\C/C=C\C/C=C\C/C=C\CCCC(=O)C(F)(F)F [ARACHIDONYL TRIFLUOROMETHYLKETONE]
# output 3.7 µM

# input Look up IC50: O=C(CCCCCc1ccccc1)c1nc2ncccc2o1
# output 0.009 µM
